# Tested on: johnsongrass (Sorghum halepense)
# Experiment Summary: Test C greenhouse herbicide test, pre- and postemergence
# Type: in vivo
# Conditions: Postemergence, 125 g ai/ha; scale 0 to 100, 0 is no effect, 100 is complete control
Listed here are molecules together with their documented Plant response rating, Johnsongrass.
Reply with just the number.

// known answers, use as guide
Structure Notation: CCCC(=O)Oc1c(C)nn(C)c(=O)c1-c1c(C)sc2ccc(C)cc12
Plant response rating, Johnsongrass: 0
//
Structure Notation: CCC(=O)Oc1c(C)nn(C)c(=O)c1-c1ccc(F)c2ccccc12
Plant response rating, Johnsongrass: 10

Record `Cc1ccc2ccccc2c1-c1c(O)c(C(F)(F)F)nn(C)c1=O` . Reported Plant response rating, Johnsongrass: 0

Record `Cc1ccc2sc(C)c(-c3c(OC(=O)OC(C)C)c(C)nn(C)c3=O)c2c1` . Reported Plant response rating, Johnsongrass: 5

Record `Cc1sc2ccccc2c1-c1c(O)c(Cl)nn(C)c1=O` . Reported Plant response rating, Johnsongrass: 0

====

# System: pigweed (Amaranthus retroflexus)
# Experiment Summary: Test A greenhouse herbicide test, pre- and postemergence
# Type: in vivo
# Conditions: Preemergence, 125 g ai/ha; 0 to 100 scale where 0 is no effect and 100 is complete control
Readout: Pigweed plant response rating
Reply with just the number.

Record `Cc1ccc2sc(Br)c(-c3c(O)c(C)nn(C)c3=O)c2c1` . Reported Pigweed plant response rating: 100

Record `CCc1sc2c(C)cc(C)cc2c1-c1c(O)c(C)nn(C)c1=O` . Reported Pigweed plant response rating: 100

Record `Cc1ccc2ccccc2c1-c1c(O)c(Br)nn(C)c1=O` . Reported Pigweed plant response rating: 100

Record `CCOc1ccc2cccc(-c3c(O)c(C)nn(C)c3=O)c2c1` . Reported Pigweed plant response rating: 0

Record `Cc1ccc2sc(C)c(-c3c(OC(=O)OC(C)C)c(C)nn(C)c3=O)c2c1` . Reported Pigweed plant response rating: 100

====

# System: pigweed (Amaranthus retroflexus)
# Experiment Summary: Test A greenhouse herbicide test, pre- and postemergence
# Assay type: in vivo
# Conditions: Postemergence, 500 g ai/ha; 0 to 100 scale, 0 is no effect, 100 is complete control
Readout: Pigweed plant response rating

// known answers, use as guide
Structure Notation: Cc1ccc2ccccc2c1-c1c(OC(=O)OC(C)C)c(C)nn(C)c1=O
System Tested: pigweed (Amaranthus retroflexus)
Pigweed plant response rating: 90
--
Structure Notation: COc1ccc2sc(C)c(-c3c(O)c(C)nn(C)c3=O)c2c1
System Tested: pigweed (Amaranthus retroflexus)
Pigweed plant response rating: 70
--
Structure Notation: Cc1ccc2c(c1)c(-c1c(O)c(C)nn(C)c1=O)c(C)n2C
System Tested: pigweed (Amaranthus retroflexus)
Pigweed plant response rating: 40

Record `COc1nn(C)c(=O)c(-c2c(C(F)F)ccc3ccccc23)c1O` . Reported Pigweed plant response rating: 90

Record `Cn1ncc(O)c(-c2cccc3ccccc23)c1=O` . Reported Pigweed plant response rating: 40

Record `COc1nn(C)c(=O)c(-c2c(C)ccc3ccc(C)cc23)c1O` . Reported Pigweed plant response rating: 90

====

Listed here are compounds together with their documented Corn plant response rating.
# System: corn (Zea mays)
# Experiment Summary: Test C greenhouse herbicide test, pre- and postemergence
# Format: in vivo
# Conditions: Postemergence, 31 g ai/ha; 0 to 100 scale (0 no effect, 100 complete control)

Compound: Cn1nc(Br)c(O)c(-c2cccc3ccccc23)c1=O [Compound 20]
Readout: Corn plant response rating
Result: 5

Record CC(=O)Oc1c(C)nn(C)c(=O)c1-c1c(C)cc(C)c2ccccc12 [Compound 99] . Reported Corn plant response rating: 0

Record CCc1ccc2ccccc2c1-c1c(O)c(C)nn(C)c1=O [Compound 32] . Reported Corn plant response rating: 0

Record Cc1cc2ccccc2c(-c2c(O)c(C)nn(C)c2=O)c1C [Compound 34] . Reported Corn plant response rating: 0

Record Cc1cc(C)c2ccccc2c1-c1c(O)c(C)nn(C)c1=O [Compound 21] . Reported Corn plant response rating: 5

Record Cc1ccc2sc(Br)c(-c3c(O)c(C)nn(C)c3=O)c2c1 [Compound 79] . Reported Corn plant response rating: 0
